- Assay Overview: Acute toxicity was determined 168 hr after a single ip injection to groups of four male ddY mice.
- Assay type: organism-based
- Conditions: mouse, in vivo
Consider the following compounds and their measured LD50 at 168 h readings.

[
  {
    "Compound": "O=C(O)Cc1cc(F)cc(-c2ccccc2)c1",
    "Bound Operator": "=",
    "LD50 at 168 h [mg/kg]": 566
  },
  {
    "Compound": "CC(=O)Nc1cc(CC(=O)O)cc(-c2ccc(Cl)cc2)c1",
    "Bound Operator": "=",
    "LD50 at 168 h [mg/kg]": 476
  },
  {
    "Compound": "CC(C(=O)O)c1cccc(-c2ccc(Cl)cc2)c1 (stereo unspecified)",
    "Bound Operator": "=",
    "LD50 at 168 h [mg/kg]": 283
  },
  {
    "Compound": "CC(=O)Nc1cc(CC(=O)O)cc(-c2ccccc2)c1",
    "Bound Operator": ">",
    "LD50 at 168 h [mg/kg]": 800
  },
  {
    "Compound": "CC(C(=O)O)c1cccc(-c2ccccc2)c1 (stereo unspecified)",
    "Bound Operator": "=",
    "LD50 at 168 h [mg/kg]": 566
  },
  {
    "Compound": "O=C(O)Cc1cc(Cl)cc(-c2ccccc2)c1",
    "Bound Operator": "=",
    "LD50 at 168 h [mg/kg]": 283
  },
  {
    "Compound": "CC(C(=O)O)c1cc(F)cc(-c2ccc(Cl)cc2)c1 (stereo unspecified)",
    "Bound Operator": "=",
    "LD50 at 168 h [mg/kg]": 200
  },
  {
    "Compound": "O=C(O)Cc1cc(Cl)cc(-c2ccc(Cl)cc2)c1",
    "Bound Operator": "=",
    "LD50 at 168 h [mg/kg]": 283
  },
  {
    "Compound": "Nc1cc(CC(=O)O)cc(-c2ccccc2)c1",
    "Bound Operator": "=",
    "LD50 at 168 h [mg/kg]": 566
  },
  {
    "Compound": "Nc1cc(CC(=O)O)cc(-c2ccc(Cl)cc2)c1",
    "Bound Operator": "=",
    "LD50 at 168 h [mg/kg]": 400
  },
  {
    "Compound": "COc1ccc(-c2cccc(C(C)C(=O)O)c2)cc1 (stereo unspecified)",
    "Bound Operator": "=",
    "LD50 at 168 h [mg/kg]": 566
  },
  {
    "Compound": "COc1ccc(-c2cc(Cl)cc(CC(=O)O)c2)cc1",
    "Bound Operator": "=",
    "LD50 at 168 h [mg/kg]": 570
  },
  {
    "Compound": "CC(C(=O)O)c1cc(Cl)cc(-c2ccccc2)c1 (stereo unspecified)",
    "Bound Operator": "=",
    "LD50 at 168 h [mg/kg]": 168
  },
  {
    "Compound": "O=C(O)Cc1cccc(-c2ccccc2)c1",
    "Bound Operator": "=",
    "LD50 at 168 h [mg/kg]": 566
  },
  {
    "Compound": "O=C(O)Cc1cc(F)cc(-c2ccc(Cl)cc2)c1",
    "Bound Operator": "=",
    "LD50 at 168 h [mg/kg]": 283
  },
  {
    "Compound": "CC(C(=O)O)c1cc(F)cc(-c2ccccc2)c1 (stereo unspecified)",
    "Bound Operator": "=",
    "LD50 at 168 h [mg/kg]": 566
  }
]

All values here come from ChEMBL document CHEMBL1121714.
